# test summary: OD615 S. cerevisiae growth inhibition, permissive medium, pilot counter-assay, permissive growth control for S. cerevisiae lifespan shortening project (AID 705)
# test context: OD615, 24 h, at 10 µM, active compounds read high
reported endpoint: growth inhibition (%)
Answer in %, number only, no unit symbol.

So for CCC(=O)Nc1c2c(nn1-c1ccc(F)cc1)CS(=O)C2 (configuration not stated) , the logged growth inhibition turned out to be -7.18

What the record says about CCCCC1CC(CSc2ncn[nH]2)OC1=O (configuration not stated) : growth inhibition is -11.3

Lookup result for CC(C)c1nc(SCC(=O)N2CCOCC2)c2c(=O)n(C)c(=O)n(C)c2n1 ; measured growth inhibition: 2.91

Noted for COc1ccccc1N1CCN(CC(O)COc2ccc3c(C)cc(=O)oc3c2)CC1 (configuration not stated) : its growth inhibition reads -3.12

Record CCCn1c(CNS(=O)(=O)c2ccc(C)cc2)nc2ccccc21 . Reported growth inhibition: -7.5

The recorded growth inhibition for entry CCO/C=N/c1c(C#N)c(CC#N)nn1-c1ccccc1 equals -13.5

The recorded growth inhibition for entry O=C(CN1CCCCC1)Nc1ccc(F)c(Cl)c1 equals 5.67

Lookup result for COc1ccc(N2CC(O)=C(c3nc(C)cs3)C2=N)cc1 ; measured growth inhibition: 8.87

Briefly, growth inhibition measured for CCc1ccc(C2CC(c3ccccc3)Nc3nc(N)nn32)cc1 (configuration not stated) : -5.9

Value of measured growth inhibition for the entry S=c1nc(-c2ccccc2)n(CCN2CCOCC2)c2c1CCCC2 : -2.79

// sample CC1(C)CC(=O)C=C(NCCCNC2CCCCC2)C1 , its growth inhibition was -9.9

So, Cc1cccc(N2CCN(S(C)(=O)=O)CC2)c1C ? Its growth inhibition was -14.5

----------
# test summary: growth inhibitors of H69AR lung tumor, primary screen, human, duplicate replicates (AID 580);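 further: 100% = mean luminescence of untreated wells and 0% = no signal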
# test context: H69AR lung tumor cells viability, ATP luminescence, 72 h; at 10 µM; active compounds read low
Can you tell me viability for the items I'm about to list?
# number only, unit % dropped from output

response.value for CN(C=O)CP(=O)(O)CCN1CCCC1=O (field: viability) = 99.4

# viability of CC(=O)Nc1ccc(Cl)cc1C(=O)O = 106

Recorded result, COc1cccc(C(c2nnnn2CCc2ccccc2)N2CCN(c3ccccc3)CC2)c1OC (stereo unspecified) , viability: 83.1

In plain terms, CCOC(=O)c1cnn(-c2cc(C)c3cc(C)cc(C)c3n2)c1N has a documented viability of 82.5

The value of viability measured for the compound CCOc1ccc(C2C=C(c3ccc(F)cc3)Nc3ncnn32)cc1 (stereo unspecified) turned out to be 82.2

The recorded viability for entry CC(=O)NS(=O)(=O)c1ccc(N)cc1 equals 102

----------
# test summary: growth suppression of yeast trafficking mutant, preliminary HTS, modulators of trafficking downstream of Golgi apparatus project, 1536-format plate, OD 615 nm (AID 637)
# test context: yeast transport mutant growth, absorbance 615 nm, 18 h; active compounds read high
reported endpoint: inhibition (%)
Form entry: value (%) — number only.

Lab note: CCOC(=O)c1cc(C)n(CCCN2CCOCC2)c1C gave inhibition of 1.11

So for c1ccc(-n2nnnc2OCCOc2nnnn2-c2ccccc2)cc1 , the logged inhibition turned out to be 9.18

CCOC(=O)c1cc2c(=O)n3cccc(C)c3nc2n(CCc2ccccc2)c1=N has a reported inhibition of 5.9

// inhibition value for CCOC(=O)C1CCN(S(=O)(=O)c2cc(Cl)c(C)cc2OC)CC1 : -3.39

# compound CCN(CC)S(=O)(=O)N1CCC(C(=O)NC2CCCc3ccccc32)CC1 (configuration not stated) ; its inhibition = -4.26

Per the records, this compound ( NC(=O)NC(c1ccccc1)c1ccccc1F (configuration not stated) ) has inhibition equal to -8

Sample c1ccc(-c2cn3c4c(sc3n2)CCCC4)cc1 ; inhibition observed: 1.27

Measured inhibition, O=S(=O)(NCCCCCNS(=O)(=O)c1ccccc1)c1ccccc1 : -3.39

Noted for CCOC(=O)N1CCN(c2c(N3CCN(c4ccccc4OC)CC3)c(=O)c2=O)CC1 : its inhibition reads -7.38

Field inhibition (entry CCOC(=O)c1c(N)sc(C(=O)N2CCOCC2)c1C ) reads -1.75

According to the records, this compound Cc1onc(-c2ccccc2)c1C(=O)Nc1ccc(S(=O)(=O)N2CCCCC2)cc1 displays inhibition of 1

Entry COCCNC(=O)CSc1nc(-c2ccc(OC)c(OC)c2)cc(C(F)(F)F)n1 , inhibition reported as -2.3

Entry Cc1csc2nc(CNC(=O)c3ccco3)cn12 — recorded inhibition = -4.35

inhibition reported for this compound CC(C)C(NC(=O)c1ccco1)C(=O)NCC(c1ccco1)N1CCCCC1 (configuration not stated) : -0.32

inhibition reading for COC(=O)C1=C(C)OC(N)=C(C#N)C1c1c(C)nn(-c2ccccc2)c1Cl (configuration not stated) : 16.6

Measured inhibition of CCC1CCCCN1C(=O)Cn1c(C(=O)OC)cc2sc(Cl)cc21 (configuration not stated) : -0.67

# compound COC(=O)c1[nH]c2cc(OC)ccc2c1NC(=O)CN1CCOCC1 ; its inhibition = -4.19

inhibition reading for Cn1nc(C(=O)Nc2cccc(C(F)(F)F)c2)ccc1=O : 1.45

// recorded inhibition for COc1cc(C(=O)OCC(=O)N(C)Cc2ccccc2)cc(OC)c1OC : 0.79

Reported inhibition of Oc1ccc2[nH]cnc2c1CN1CCCCC1 : 3.28

Entry under test: CCn1nnnc1SCC(=O)Nc1nnc(C(C)C)s1 . Its inhibition was 3.11

In plain terms, COc1ccc(C2CC(C(F)(F)F)n3ncc(C(=O)NCc4cccnc4)c3N2)cc1OC (configuration not stated) has a documented inhibition of 2.33

The compound listed as CCC(C)(C(=O)NC1CCCCC1)N(Cc1ccco1)C(=O)c1ccc2c(c1)OCO2 (configuration not stated) shows inhibition equal to -7.05

Summary for this compound, COc1cc2[nH]c(=O)c(C(=O)NCCCN3CCCCC3)c(O)c2cc1OC : inhibition is 1.11

The compound listed as CC1=C(C(=O)NC2CCC(C)CC2)C2(CCC(C)CC2)OC1=O (configuration not stated) shows inhibition equal to -5.25

Per the records, this compound ( COCCNC(=O)c1cc2c(-c3ccccc3F)nn(C)c2s1 ) has inhibition equal to -2.42

// inhibition lookup, compound = COc1ccc(-n2nnc3c(=O)n(C/C=C/c4ccccc4)cnc32)cc1 , result: 1.33

Lab book: inhibition of Cc1cc2ccccn2c1C(=O)c1ccncc1 noted as 2.22

Noted for N#Cc1c(/N=C/c2ccco2)sc2c1CCC2 : its inhibition reads 11.2

Summary for this compound, CCc1cc(=O)oc2c(CN3CCN(C)CC3)c(O)c(Cl)cc12 : inhibition is -3.61

inhibition for CCOc1ccc(Cl)cc1S(=O)(=O)N1CCCC1 is -1.11

O=C(CCCCC(=O)NCc1cccs1)NCc1cccs1 yielded inhibition of -7.42

The recorded inhibition for Cc1cc(C)c(S(=O)(=O)Nc2cccnc2)c(C)c1 is -0.16

Lab note: measured inhibition of CCSc1oc(-c2cccs2)nc1S(=O)(=O)c1ccccc1 was 1.83

For record COc1ccc(C(=O)Nn2c(C3CCC3)nc3ccccc3c2=O)c(OC)c1 the listed inhibition is 1.9

# inhibition of COc1ccc(CNc2nc(NCc3ccc(OC)cc3)n(S(C)(=O)=O)n2)cc1 = 0.82

The measured inhibition associated with CCOC(=O)CSc1nnc(NC(=O)c2cccc(S(=O)(=O)N3CCCCC3)c2)s1 reads -1.67

inhibition recorded for this compound, O=C(c1ccco1)N1CCN(c2cccc(Cl)c2)CC1 , is -9.68

Recorded inhibition (compound O=C1N=C(N2CCOCC2)CS1 ): -1.45

Record CN(C)S(=O)(=O)Nc1ccc(Br)cc1F . Reported inhibition: -8.1

GET /value?item= CCOC(=O)c1ccc(Oc2cc(C)nc(SC)n2)cc1 &field=inhibition returns 2.3

Just so you know, measured inhibition for COc1ccc(N2CCN(c3ncnc4c3cnn4-c3ccc(C)cc3C)CC2)cc1 came out at -1.29

For c1cn(CC2(Cn3ccnc3)COC2)cn1 the compound record lists inhibition as -0.79

Record CC1(C)CC(=O)C2=C(C1)OC(=O)C2(NC(=O)c1cccs1)C(F)(F)F (configuration not stated) , field inhibition: 12.2

Lab book: inhibition of CCOC(=O)C(CCc1nnc(N)s1)C(=O)OCC noted as -0.48

Just so you know, measured inhibition for CCOC(=O)c1ccc(Oc2nc(SC)nc(N(C)C)n2)cc1 came out at -8.17

# compound CCCCSc1nc2c(cnn2-c2ccc(Cl)cc2)c(=O)[nH]1 ; its inhibition = 7.38

----------
# test summary: growth suppression of yeast trafficking mutant, preliminary HTS, modulators of trafficking downstream of Golgi apparatus project, 1536-format plate, OD 615 nm (AID 637)
# test context: yeast transport mutant growth, absorbance 615 nm, 18 h; active compounds read high
reported endpoint: inhibition (%)
Return type: number; implicit unit %.

So for Cc1oc2c(CN3CCOCC3)c(O)ccc2c(=O)c1-c1ccc(Br)cc1 , the logged inhibition turned out to be -2.67

Form: compound = COc1ccc(NC(=O)CN2CCN(S(=O)(=O)c3ccc(Cl)cc3)CC2)cc1 ; inhibition = -11

Entry CCOC(=O)c1c(NCc2ccc3c(c2)OCO3)c2ccccc2[nH]c1=O — recorded inhibition = 1.33

Recorded inhibition (compound Cc1occc1-c1nnc(SCC(=O)NCC2CCCO2)n1C (stereo unspecified) ): 18.7

// inhibition value for O=C(NCC(c1cccnc1)N1CCOCC1)c1cccs1 (stereo unspecified) : 11.2

Entry Cc1ccc(-c2nc(CS(=O)CC(=O)NCCN(CC(C)C)CC(C)C)c(C)o2)cc1 (stereo unspecified) , inhibition reported as 0.97
